Source listed as the kinase profiling compilation of Christmann-Franck et al. (2016).

system tested: MARK1 (human) (UniProt Q9P0L2)
Sequence (Q9P0L2 whole entry, looked up): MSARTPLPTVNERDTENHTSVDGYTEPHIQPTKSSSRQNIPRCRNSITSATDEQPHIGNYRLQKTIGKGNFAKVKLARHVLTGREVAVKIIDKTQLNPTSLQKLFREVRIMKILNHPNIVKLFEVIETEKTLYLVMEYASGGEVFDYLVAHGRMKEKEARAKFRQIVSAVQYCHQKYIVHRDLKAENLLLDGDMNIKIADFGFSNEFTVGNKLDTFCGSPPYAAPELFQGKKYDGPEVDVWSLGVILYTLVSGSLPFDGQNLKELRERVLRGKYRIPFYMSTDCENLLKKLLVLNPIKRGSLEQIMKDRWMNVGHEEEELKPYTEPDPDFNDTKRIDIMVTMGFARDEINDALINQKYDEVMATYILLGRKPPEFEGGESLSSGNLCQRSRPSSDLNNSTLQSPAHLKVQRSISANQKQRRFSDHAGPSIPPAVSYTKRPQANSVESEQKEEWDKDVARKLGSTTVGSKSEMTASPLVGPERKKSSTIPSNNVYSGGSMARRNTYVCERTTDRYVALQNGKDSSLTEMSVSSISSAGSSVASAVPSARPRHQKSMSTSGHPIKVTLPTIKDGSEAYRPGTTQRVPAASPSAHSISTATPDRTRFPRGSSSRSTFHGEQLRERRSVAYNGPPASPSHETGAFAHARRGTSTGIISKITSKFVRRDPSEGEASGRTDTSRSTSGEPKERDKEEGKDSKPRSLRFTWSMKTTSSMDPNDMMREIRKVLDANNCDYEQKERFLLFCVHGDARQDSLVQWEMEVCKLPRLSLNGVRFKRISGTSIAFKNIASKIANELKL
experimental details: radiometric filter-binding kinase assay
stated conditions: compound 1.0 µM
recorded metric: residual activity (%)

Below: 4 compounds and their reported residual activity.
[
  {
    "molecule smiles": "O=C(Nc1ccccc1-c1cn2c(CN3CCNCC3)csc2n1)c1cnc2ccccc2n1",
    "system tested": "MARK1 (human) (UniProt Q9P0L2)",
    "residual activity, %": 85
  },
  {
    "molecule smiles": "O=c1c(O)c(-c2ccc(O)c(O)c2)oc2cc(O)c(O)c(O)c12",
    "system tested": "MARK1 (human) (UniProt Q9P0L2)",
    "residual activity, %": 40
  },
  {
    "molecule smiles": "C=CC(=O)N1CCC[C@@H](n2nc(-c3ccc(Oc4ccccc4)cc3)c3c(N)ncnc32)C1",
    "system tested": "MARK1 (human) (UniProt Q9P0L2)",
    "residual activity, %": 103
  },
  {
    "molecule smiles": "N#Cc1c(C2CCNCC2)cc(-c2c(O)cccc2OCC2CC2)nc1N",
    "system tested": "MARK1 (human) (UniProt Q9P0L2)",
    "residual activity, %": 88
  }
]

[a] COc1ccc(-n2ncc3cnc(Nc4cc(OC)c(OC)c(OCCCN5CCN(C)CC5)c4)nc32)cc1
[b] Cc1nc(-c2ccc(OCC(C)C)c(C#N)c2)sc1C(=O)O
Kindly identify the item with the lower residual activity figure among these two: a and b Record your answer as the label of the chosen record. a
(a: 31%, b: 96%)

* * *

system tested: UniProt:O14920
Sequence (O14920 whole entry, looked up): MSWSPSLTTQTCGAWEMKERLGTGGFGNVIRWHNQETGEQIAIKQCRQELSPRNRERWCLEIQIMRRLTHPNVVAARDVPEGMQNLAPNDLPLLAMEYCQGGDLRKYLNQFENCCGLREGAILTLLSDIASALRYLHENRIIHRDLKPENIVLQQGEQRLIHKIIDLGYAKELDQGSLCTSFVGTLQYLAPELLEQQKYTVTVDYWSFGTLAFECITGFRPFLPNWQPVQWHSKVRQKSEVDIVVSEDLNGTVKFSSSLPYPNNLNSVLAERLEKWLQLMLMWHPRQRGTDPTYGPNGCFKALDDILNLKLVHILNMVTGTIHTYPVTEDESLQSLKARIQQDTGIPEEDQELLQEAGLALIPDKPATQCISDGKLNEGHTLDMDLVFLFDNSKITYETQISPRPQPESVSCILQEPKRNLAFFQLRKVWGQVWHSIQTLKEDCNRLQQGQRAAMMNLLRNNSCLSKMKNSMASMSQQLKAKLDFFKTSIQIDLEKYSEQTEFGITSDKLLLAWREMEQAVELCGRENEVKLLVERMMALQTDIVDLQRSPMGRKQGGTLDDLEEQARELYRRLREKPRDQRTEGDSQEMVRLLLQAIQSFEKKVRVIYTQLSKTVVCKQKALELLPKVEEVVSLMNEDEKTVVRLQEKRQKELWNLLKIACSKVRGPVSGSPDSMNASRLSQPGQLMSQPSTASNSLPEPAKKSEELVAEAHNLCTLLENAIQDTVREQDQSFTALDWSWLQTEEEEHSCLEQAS
experimental details: radiometric filter-binding kinase assay
stated conditions: compound 1.0 µM
recorded metric: residual activity (%)

[
  {
    "molecule smiles": "FC(F)(F)c1ccc(-c2ccc(Oc3cncc4sc(-c5nn[nH]n5)cc34)cc2)cc1",
    "unit text": "%",
    "residual activity": 89
  },
  {
    "molecule smiles": "COc1ccc(N(C(=O)Nc2c(C)cccc2C)c2cc(Nc3ccc(N4CCN(C)CC4)cc3)ncn2)c(OC)c1",
    "unit text": "%",
    "residual activity": 99
  },
  {
    "molecule smiles": "NS(=O)(=O)OC[C@@H]1C[C@@H](n2ccc3c(N[C@H]4CCc5ccccc54)ncnc32)C[C@@H]1O",
    "unit text": "%",
    "residual activity": 100
  },
  {
    "molecule smiles": "Cn1c(=O)c2c(ncn2C)n(C)c1=O",
    "unit text": "%",
    "residual activity": 100
  },
  {
    "molecule smiles": "c1ccc2c(-c3cnn4cc(-c5ccc(N6CCNCC6)cc5)cnc34)ccnc2c1",
    "unit text": "%",
    "residual activity": 98
  },
  {
    "molecule smiles": "Cc1ccc(=O)n(-c2ccccc2)c1",
    "unit text": "%",
    "residual activity": 87
  },
  {
    "molecule smiles": "O=C(Nc1ccccc1-c1cn2c(CN3CCNCC3)csc2n1)c1cnc2ccccc2n1",
    "unit text": "%",
    "residual activity": 93
  },
  {
    "molecule smiles": "O=C(O)c1ccc(-c2c[nH]c3ncc(-c4ccccc4)cc23)cc1C1CCCC1",
    "unit text": "%",
    "residual activity": 97
  },
  {
    "molecule smiles": "C[C@H]1CCCC(=O)CCC/C=C/c2cc(O)cc(O)c2C(=O)O1",
    "unit text": "%",
    "residual activity": 101
  }
]

* * *

system tested: UniProt:Q96L34
Sequence (Q96L34 whole entry, looked up): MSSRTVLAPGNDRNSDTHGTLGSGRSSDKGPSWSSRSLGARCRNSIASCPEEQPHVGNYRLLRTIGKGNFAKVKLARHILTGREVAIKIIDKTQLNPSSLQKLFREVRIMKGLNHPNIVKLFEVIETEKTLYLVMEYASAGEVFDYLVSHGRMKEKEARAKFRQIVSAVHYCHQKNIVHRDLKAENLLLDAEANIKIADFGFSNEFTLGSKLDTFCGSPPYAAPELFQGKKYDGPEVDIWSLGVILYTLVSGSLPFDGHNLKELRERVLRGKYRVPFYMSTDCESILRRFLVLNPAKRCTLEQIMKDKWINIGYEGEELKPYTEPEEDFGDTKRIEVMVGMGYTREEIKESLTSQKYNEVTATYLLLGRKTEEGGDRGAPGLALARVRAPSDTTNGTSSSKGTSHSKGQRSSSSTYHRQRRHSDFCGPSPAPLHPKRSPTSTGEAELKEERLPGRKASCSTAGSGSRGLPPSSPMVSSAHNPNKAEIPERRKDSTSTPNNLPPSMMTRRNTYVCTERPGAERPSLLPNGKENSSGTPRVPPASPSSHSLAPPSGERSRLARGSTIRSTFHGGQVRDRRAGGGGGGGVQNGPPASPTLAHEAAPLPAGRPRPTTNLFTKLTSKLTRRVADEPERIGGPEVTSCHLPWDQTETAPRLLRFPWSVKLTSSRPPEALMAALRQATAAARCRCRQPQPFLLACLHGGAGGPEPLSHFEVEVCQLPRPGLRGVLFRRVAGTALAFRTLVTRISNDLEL
experimental details: radiometric filter-binding kinase assay
stated conditions: compound 1.0 µM
recorded metric: residual activity (%)

[
  {
    "molecule smiles": "O=C(Nc1ccccc1-c1cn2c(CN3CCNCC3)csc2n1)c1cnc2ccccc2n1",
    "unit text": "%",
    "residual activity": 110
  },
  {
    "molecule smiles": "CCn1c(-c2nonc2N)nc2cncc(CNC3CCNCC3)c21",
    "unit text": "%",
    "residual activity": 103
  },
  {
    "molecule smiles": "CN(C)C/C=C/C(=O)Nc1cccc(C(=O)Nc2ccc(Nc3nccc(-c4cccnc4)n3)cc2)c1",
    "unit text": "%",
    "residual activity": 83
  },
  {
    "molecule smiles": "CCNc1nc(Nc2cc(F)c(C(=O)N3CCOCC3)cc2OC)ncc1C(F)(F)F",
    "unit text": "%",
    "residual activity": 91
  }
]

* * *

system tested: STK33 (human) (UniProt Q9BYT3)
Sequence (Q9BYT3 whole entry, looked up): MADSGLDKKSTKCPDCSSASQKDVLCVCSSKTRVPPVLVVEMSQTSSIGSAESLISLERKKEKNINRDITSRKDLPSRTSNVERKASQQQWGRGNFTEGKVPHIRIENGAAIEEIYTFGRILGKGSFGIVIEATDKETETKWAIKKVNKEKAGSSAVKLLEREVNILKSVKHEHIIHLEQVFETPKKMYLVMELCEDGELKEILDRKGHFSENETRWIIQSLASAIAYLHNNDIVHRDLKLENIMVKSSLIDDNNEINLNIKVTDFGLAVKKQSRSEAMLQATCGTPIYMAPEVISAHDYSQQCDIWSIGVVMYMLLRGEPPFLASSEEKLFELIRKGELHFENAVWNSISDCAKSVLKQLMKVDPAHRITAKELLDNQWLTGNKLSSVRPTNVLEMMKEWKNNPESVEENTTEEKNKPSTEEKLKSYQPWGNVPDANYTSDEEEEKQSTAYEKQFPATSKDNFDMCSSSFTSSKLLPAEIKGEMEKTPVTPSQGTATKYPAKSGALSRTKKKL
experimental details: radiometric filter-binding kinase assay
stated conditions: compound 1.0 µM
recorded metric: residual activity (%)

[
  {
    "compound": "C=C1C(=O)OC2C1CC/C(C)=C/CCC1(C)OC21 (stereo unspecified)",
    "unit text": "%",
    "residual activity": 117
  },
  {
    "compound": "O=C(Nc1nc2cc(C(F)(F)F)cc(NC3CC3)n2n1)c1cccnc1",
    "unit text": "%",
    "residual activity": 88
  },
  {
    "compound": "COc1cc(O)c2c(c1)[C@H]1OC1C[C@H](O)[C@H](O)C(=O)/C=C\\C[C@H](C)OC2=O (stereo partly specified)",
    "unit text": "%",
    "residual activity": 113
  },
  {
    "compound": "Cc1nc(-c2ccc(OCC(C)C)c(C#N)c2)sc1C(=O)O",
    "unit text": "%",
    "residual activity": 101
  }
]

[A] O=C(NOCC(O)CO)c1ccc(F)c(F)c1Nc1ccc(I)cc1Cl (stereo unspecified)
[B] CCNc1nc(Nc2cc(F)c(C(=O)N3CCOCC3)cc2OC)ncc1C(F)(F)F
Kindly identify the item with the lower residual activity figure among these two: A and B Record your answer as the label of the chosen record. B
(B: 39%, A: 92%)

* * *

system tested: MAPKAPK5 (human)
experimental details: radiometric filter-binding kinase assay
stated conditions: compound 10.0 µM
recorded metric: residual activity (%)

[
  {
    "compound": "CN1C(=O)[C@@H](Cc2c[nH]c3ccccc23)NC1=S",
    "residual activity / %": 87
  },
  {
    "compound": "CCn1c(-c2nonc2N)nc2cncc(CNC3CCNCC3)c21",
    "residual activity / %": 96
  },
  {
    "compound": "O=S(=O)(c1ccc(F)c2nonc12)N1CCN(c2ncc(C(F)(F)F)cc2Cl)CC1",
    "residual activity / %": 85
  },
  {
    "compound": "C[C@H]1CCCC(=O)CCC/C=C/c2cc(O)cc(O)c2C(=O)O1",
    "residual activity / %": 79
  },
  {
    "compound": "COc1ccc2c(c1)c1c3c(c4c5ccccc5n(C)c4c1n2CC(O)CN(C)C)C(=O)NC3=O (centres undefined)",
    "residual activity / %": 108
  },
  {
    "compound": "O=C(NOCC(O)CO)c1ccc(F)c(F)c1Nc1ccc(I)cc1Cl (centres undefined)",
    "residual activity / %": 100
  },
  {
    "compound": "CCOC(=O)c1ccc(N2NC(=O)/C(=C/c3ccc([N+](=O)[O-])o3)C2=O)cc1",
    "residual activity / %": 97
  },
  {
    "compound": "NCC(=O)Nc1ccc(-n2nc(C(F)(F)F)cc2-c2ccc3c(ccc4ccccc43)c2)cc1",
    "residual activity / %": 76
  },
  {
    "compound": "CCCC(CCC)C(=O)O",
    "residual activity / %": 91
  },
  {
    "compound": "CC(C)(C#N)c1ccc(N2C(=O)OCc3cnc4ccc(-c5cnc6ccccc6c5)cc4c32)cc1",
    "residual activity / %": 89
  },
  {
    "compound": "O=C(N[C@@H](COc1ccc2[nH]c(=O)[nH]c2c1)c1ccccc1)c1cccn(Cc2ccc(F)c(F)c2)c1=O",
    "residual activity / %": 95
  },
  {
    "compound": "O=C(Nc1ccccc1-c1cn2c(CN3CCNCC3)csc2n1)c1cnc2ccccc2n1",
    "residual activity / %": 105
  },
  {
    "compound": "N#Cc1c(C2CCNCC2)cc(-c2c(O)cccc2OCC2CC2)nc1N",
    "residual activity / %": 88
  },
  {
    "compound": "CNc1nc(-c2ccc3c(N)n[nH]c3c2)cc(N2C[C@@H](C(=O)NC3CCCCC3)CC[C@H]2C)n1",
    "residual activity / %": 95
  }
]

* * *

system tested: CHEK2 (human)
experimental details: radiometric filter-binding kinase assay
stated conditions: compound 10.0 µM
recorded metric: residual activity (%)

Below: 8 molecules and their reported residual activity.
[
  {
    "molecule": "NC(=O)c1c(NC(=O)C2CC2)sc2c1CCCC2",
    "result": 35
  },
  {
    "molecule": "N#Cc1c(O)c2c(-c3ccc(-c4ccccc4O)cc3)csc2[nH]c1=O",
    "result": 79
  },
  {
    "molecule": "CCOC(=O)c1ccc(N2NC(=O)/C(=C/c3ccc([N+](=O)[O-])o3)C2=O)cc1",
    "result": 92
  },
  {
    "molecule": "O=C1NC(=S)N[C@@H]1Cc1c[nH]c2ccccc12",
    "result": 94
  },
  {
    "molecule": "COc1ccc2c(c1)c1c3c(c4c5ccccc5n(C)c4c1n2CC(O)CN(C)C)C(=O)NC3=O (stereo not given)",
    "result": 10
  },
  {
    "molecule": "O=C(NOCC(O)CO)c1ccc(F)c(F)c1Nc1ccc(I)cc1Cl (stereo not given)",
    "result": 93
  },
  {
    "molecule": "O=C(NOC[C@H](O)CO)c1ccc(F)c(F)c1Nc1ccc(I)cc1Cl",
    "result": 114
  },
  {
    "molecule": "CC(C)(C#N)c1ccc(N2C(=O)OCc3cnc4ccc(-c5cnc6ccccc6c5)cc4c32)cc1",
    "result": 94
  }
]

[I] Cc1ccc(=O)n(-c2ccccc2)c1
[II] CNc1nc(-c2ccc3c(N)n[nH]c3c2)cc(N2C[C@@H](C(=O)NC3CCCCC3)CC[C@H]2C)n1
[III] O=c1c(O)c(-c2ccc(O)c(O)c2)oc2cc(O)c(O)c(O)c12
[IV] Cc1ccc(-c2ccc3c(ccc4sc5c(c43)NC[C@@H](C)NC5=O)n2)cn1
[V] NC(=O)c1cc2c(-c3cccc(-c4ccccc4)c3)cnc(N)c2s1
Thanks in advance: please rank these 5 entries by residual activity, highest to lowest. // rank by listing labels in the order requested I, II, V, IV, III
